Every entry's value here was drawn from patent US8916565B2.

# System: human NaV subtype, like NaV 1.7 (Homo sapiens)
# Sequence (Q15858 whole entry): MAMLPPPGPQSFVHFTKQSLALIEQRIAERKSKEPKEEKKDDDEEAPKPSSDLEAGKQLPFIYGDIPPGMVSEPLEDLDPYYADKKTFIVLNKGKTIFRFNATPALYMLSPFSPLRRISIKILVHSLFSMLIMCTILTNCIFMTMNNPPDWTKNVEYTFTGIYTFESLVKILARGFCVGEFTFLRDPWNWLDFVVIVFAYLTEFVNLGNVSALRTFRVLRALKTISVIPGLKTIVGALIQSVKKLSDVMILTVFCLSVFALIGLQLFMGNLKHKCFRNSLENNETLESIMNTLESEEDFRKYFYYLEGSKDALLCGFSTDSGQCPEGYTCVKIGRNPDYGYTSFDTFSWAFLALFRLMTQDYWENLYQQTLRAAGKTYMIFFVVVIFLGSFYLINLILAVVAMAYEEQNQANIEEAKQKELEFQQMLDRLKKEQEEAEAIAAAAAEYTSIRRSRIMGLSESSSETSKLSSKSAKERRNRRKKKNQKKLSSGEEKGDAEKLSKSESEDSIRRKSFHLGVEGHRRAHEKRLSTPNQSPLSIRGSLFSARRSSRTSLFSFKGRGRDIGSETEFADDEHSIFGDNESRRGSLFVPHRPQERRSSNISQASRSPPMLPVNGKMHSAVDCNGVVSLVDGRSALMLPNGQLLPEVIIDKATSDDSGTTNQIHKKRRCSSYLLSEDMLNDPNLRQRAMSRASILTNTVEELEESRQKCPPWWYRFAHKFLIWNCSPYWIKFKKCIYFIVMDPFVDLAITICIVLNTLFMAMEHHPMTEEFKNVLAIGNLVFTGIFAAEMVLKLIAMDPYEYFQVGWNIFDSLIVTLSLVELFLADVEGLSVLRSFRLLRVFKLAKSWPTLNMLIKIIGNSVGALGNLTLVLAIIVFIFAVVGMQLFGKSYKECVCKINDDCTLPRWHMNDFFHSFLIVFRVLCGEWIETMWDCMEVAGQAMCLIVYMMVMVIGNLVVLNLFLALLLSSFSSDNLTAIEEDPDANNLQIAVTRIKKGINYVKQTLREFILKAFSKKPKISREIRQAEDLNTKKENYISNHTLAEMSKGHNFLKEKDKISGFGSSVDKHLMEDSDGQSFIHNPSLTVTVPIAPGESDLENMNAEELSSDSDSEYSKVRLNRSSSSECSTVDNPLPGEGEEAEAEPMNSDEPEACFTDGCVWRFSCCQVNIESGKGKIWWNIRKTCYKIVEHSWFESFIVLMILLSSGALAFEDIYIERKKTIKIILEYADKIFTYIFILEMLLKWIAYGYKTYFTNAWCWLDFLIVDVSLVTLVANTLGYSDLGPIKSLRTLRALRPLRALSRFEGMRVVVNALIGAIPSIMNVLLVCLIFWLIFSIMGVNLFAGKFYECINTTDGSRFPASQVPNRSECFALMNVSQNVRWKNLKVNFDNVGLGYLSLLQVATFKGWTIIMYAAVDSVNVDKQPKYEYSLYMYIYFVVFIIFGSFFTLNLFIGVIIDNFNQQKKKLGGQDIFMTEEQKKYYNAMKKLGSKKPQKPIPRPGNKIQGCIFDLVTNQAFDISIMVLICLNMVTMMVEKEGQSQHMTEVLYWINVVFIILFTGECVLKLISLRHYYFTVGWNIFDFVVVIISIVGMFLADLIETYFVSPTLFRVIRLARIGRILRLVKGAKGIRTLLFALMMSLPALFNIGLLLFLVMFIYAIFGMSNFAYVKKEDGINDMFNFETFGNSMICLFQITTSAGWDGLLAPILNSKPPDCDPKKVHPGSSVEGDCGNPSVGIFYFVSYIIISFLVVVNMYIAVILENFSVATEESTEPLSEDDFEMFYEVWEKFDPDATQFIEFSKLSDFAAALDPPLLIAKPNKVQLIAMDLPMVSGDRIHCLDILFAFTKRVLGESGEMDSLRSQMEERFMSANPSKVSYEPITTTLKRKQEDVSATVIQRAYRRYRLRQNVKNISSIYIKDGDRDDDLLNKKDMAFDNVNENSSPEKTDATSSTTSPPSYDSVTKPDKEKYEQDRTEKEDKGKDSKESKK
# Method Description: E-VIPR optical membrane potential assay with electrical stimulation
# Setup Conditions: active against one or more sodium channels; Table 3 does not name the assay or NaV subtype; read-out: Binned Activity Data (IC50)
Readout Kind: IC50

Cc1cc(C(=O)N2CCC3(CC2)c2ccc(C(=O)C(F)(F)F)n2CCN3C)ccc1-c1cncnc1 [Compound 191] ... ≤ 2000 nM

Q. Data request, read-out IC50, for COc1ccc(C(=O)N2CCC3(CC2)c2ccc(C(=O)C(F)(F)F)n2C(C)CN3C)cc1C (stereo not shown) [Compound 164]
A. ≤ 2000 nM

Q. Requested read-out: IC50. Entry: CC(C)Oc1ccc(C(=O)N2CCC3(CC2)c2ccc(C(=O)C(C)(C)C)n2CCN3C)cc1Cl [Compound 243]
A. ≤ 2000 nM

Q. I have this compound here, COc1cc(C(=O)N2CCC3(CC2)c2c(F)cc(C(F)(F)F)n2CCN3C)ccc1OCC(C)C [Compound 188] , and I need its recorded IC50.
A. ≤ 2000 nM

Q. # query: IC50 of entry Cc1cc(C(=O)N2CCC3(CC2)NCCn2c(C(F)(F)F)ccc23)ccc1S(=O)(=O)N(C)C [Compound 265]
A. ≤ 2000 nM

Q. Which measured IC50 value corresponds to Cc1cc(C(=O)N2CCC3(CC2)c2c(F)cc(C(F)(F)F)n2CCN3C)ccc1OC(C)C [Compound 672] ?
A. ≤ 2000 nM

Q. So what does the record say about IC50 for CCc1ccc(C(=O)N2CCC3(CC2)c2ccc(Cl)n2CCN3C)cc1OC [Compound 512] ?
A. 2000 to 5000 nM

###

# System: human NaV subtype, like NaV 1.7 (Homo sapiens)
# Method Description: E-VIPR optical membrane potential assay with electrical stimulation
# Setup Conditions: active against one or more sodium channels; Table 3 does not name the assay or NaV subtype; read-out: Binned Activity Data (IC50)
Readout Kind: IC50

CC(=O)c1ccc2n1CCN(C)C21CCN(C(=O)c2ccc(CC(C)C)cc2)CC1 ... ≤ 2000 nM
CCCOc1ccc(C(=O)N2CCC3(CC2)c2ccc(C(=O)C(F)(F)F)n2CCN3C)cc1 ... ≤ 2000 nM
CN1CCn2c(C(F)(F)F)ccc2C12CCN(C(=O)c1cccc(Cl)c1)CC2 ... > 5000 nM
CC(C)C(=O)c1ccc2n1CCN(C)C21CCN(C(=O)c2ccc(COCCC(F)(F)F)cc2)CC1 ... ≤ 2000 nM
CN1CCn2c(C(=O)C(F)(F)F)ccc2C12CCN(C(=O)c1ccc(OCC(C)(C)C)cc1)CC2 ... ≤ 2000 nM

Q. What value of IC50 has been recorded for this entry: Cc1cc(C(=O)N2CCC3(CC2)c2ccc(C(F)(F)F)n2CCN3C)ccc1OCCCO
A. ≤ 2000 nM

Q. Look up IC50 for this compound: Cc1cc(C(=O)N2CC[C@@]3(c4ccc(C(F)(F)F)n4CCN3C)[C@H](F)C2)ccc1OC(C)C
A. ≤ 2000 nM

Q. Dear colleague, I am looking for the recorded IC50 of the following compound: CN1CCn2c(Cl)ccc2C12CCN(C(=O)c1ccc(N3CCCCC3)cc1)CC2
A. > 5000 nM

###

Listed compounds paired with reported IC50
# System: human NaV subtype, like NaV 1.7 (Homo sapiens)
# Method Description: E-VIPR optical membrane potential assay with electrical stimulation
# Setup Conditions: active against one or more sodium channels; Table 3 does not name the assay or NaV subtype; read-out: Binned Activity Data (IC50)

CN1CCn2c(C(F)(F)F)ccc2C12CCN(C(=O)c1ccccc1Oc1ccccc1)CC2 ... ≤ 2 µM
CN1CCn2c(C(=O)C(F)(F)F)ccc2C12CCN(C(=O)c1ccc(OC(C)(C)C)cc1)CC2 ... ≤ 2 µM
CC(=O)c1ccc2n1CCN(C)C21CCN(C(=O)c2ccc(OCC(C)(C)C)cc2)CC1 ... ≤ 2 µM
CC(C)S(=O)(=O)c1ccc(C(=O)N2CCC3(CC2)c2c(F)cc(C(F)(F)F)n2CCN3C)cc1 ... ≤ 2 µM
CCCCOc1ccc(C(=O)N2CCC3(CC2)c2ccc(C(C)=O)n2CCN3C)cc1OC ... ≤ 2 µM

Q. Value wanted: IC50 (human NaV subtype, like NaV 1.7 (Homo sapiens)) of entry CC(=O)c1ccc2n1CCN(C)C21CCN(C(=O)c2ccc(OC(C)C)c(C#N)c2)CC1
A. 2 to 5 µM

Q. For the record CC(C)Oc1ccc(C(=O)N2CC[C@]3(c4ccc(C(F)(F)F)n4CCN3C)[C@H](F)C2)cc1CO , what value of IC50 is listed for human NaV subtype, like NaV 1.7 (Homo sapiens)?
A. 2 to 5 µM

Q. Which measured IC50 belongs to Cc1cc(C(=O)N2CCC3(CC2)c2ccc(C(=O)C(F)(F)F)n2CCN3C)ncc1OC(C)C , tested on human NaV subtype, like NaV 1.7 (Homo sapiens)?
A. ≤ 2 µM

Q. # query: IC50 | item CC(C)CCOc1ccc(C(=O)N2CCC3(CC2)c2ccc(C(=O)C(F)(F)F)n2CCN3C)nc1 | system: human NaV subtype, like NaV 1.7 (Homo sapiens)
A. ≤ 2 µM

###

Each item that follows carries a reported pIC50.
# System: UniProtKB Q15858
# Method Description: E-VIPR optical membrane potential assay with electrical stimulation
# Assay type: cell-based
# Setup Conditions: active against one or more sodium channels; Table 3 does not name the assay or NaV subtype; read-out: Binned Activity Data (IC50)
pIC50: −log10 of the molar value.

Cc1cc(C(=O)N2CCC3(CC2)c2ccc(C(F)(F)F)n2CCN3C2CC2)ccc1C(C)(C)O ... ≥ 5.70
Cc1cc(C(=O)N2CCC3(CC2)NC(C)(C)Cn2c(C(=O)C(F)(F)F)ccc23)ccc1OC(C)C ... ≥ 5.70
CC1(C)Cn2c(C(=O)C(F)(F)F)ccc2C2(CCN(C(=O)c3ccc(C4CCCCC4)cc3)CC2)N1 ... ≥ 5.70
COc1cc(C(=O)N2CC[C@]3(C[C@H]2C)c2ccc(C(F)(F)F)n2CCN3C)ccc1OC(C)C ... < 5.30
Cc1nc(C(=O)N2CCC3(CC2)c2ccc(C(=O)C(F)(F)F)n2C(C)CN3C)ccc1OC(C)C (centres unmarked) ... ≥ 5.70

Q. Missing value: pIC50, UniProtKB Q15858, entry CC(C)Oc1ccc(C(=O)N2CCC3(CC2)NCC(C)(C)n2c(C(F)(F)F)ccc23)cc1Cl . Fill in?
A. ≥ 5.70

Q. # value lookup — system UniProtKB Q15858, readout pIC50, item COc1cc(C(=O)N2CCC3(CC2)c2ccc(C(=O)C(F)(F)F)n2CCN3C)ccc1OC(C)(C)C
A. ≥ 5.70

Q. Form entry - test system: UniProtKB Q15858; read-out: pIC50; molecule: CC1Cn2c(C(F)(F)F)ccc2C2(CCN(C(=O)c3ccc(OC(C)C)c(F)c3)CC2)N1 (centres unmarked)
A. ≥ 5.70

Q. Recall the recorded pIC50 for Cc1cc(C(=O)N2CCC3(CC2)c2ccc(C(=O)C(F)(F)F)n2CCN3C)ccc1C1(O)CCCC1 with UniProtKB Q15858 and state it.
A. ≥ 5.70

Q. Hello, I am looking for reported pIC50 with UniProtKB Q15858 for CN1CCn2c(C(F)(F)F)cc(F)c2C12CCN(C(=O)c1ccc(C3CC3)cc1)CC2 . Could you help?
A. 5.30 to 5.70

Q. # get_value(readout= pIC50, system= UniProtKB Q15858) for CCCOc1ccc(C(=O)N2CCC3(CC2)c2ccc(Cl)n2CCN3C)cc1OC
A. 5.30 to 5.70

Q. So what pIC50 did Cc1cc(C(=O)N2CCC3(CC2)c2ccc(C(=O)C(C)C)n2CCN3C)ccc1O get with UniProtKB Q15858?
A. ≥ 5.70

Q. Hi! What's the reported pIC50 for COc1ccccc1C(=O)N1CCC2(CC1)c1ccc(C(F)(F)F)n1CCN2C on UniProtKB Q15858?
A. 5.30 to 5.70

Q. Provide the documented pIC50 with UniProtKB Q15858 as the system for CN1CCn2c(Cl)ccc2C12CCN(C(=O)c1ccc(C(C)(C)C)cc1)CC2
A. < 5.30

Q. Write down the reported pIC50 of CN1CCn2c(C(=O)C3(C)CC3)ccc2C12CCN(C(=O)c1ccc(COCCC(F)(F)F)cc1)CC2 , test system: UniProtKB Q15858.
A. ≥ 5.70

Q. UniProtKB Q15858 / pIC50 / CC(C)Oc1ccc(C(=O)N2CCC3(CC2)c2ccc(C(=O)C4(C)CC4)n2CCN3C)cc1CO : value?
A. ≥ 5.70

Q. Short answer please: pIC50, UniProtKB Q15858, entry CC1CNC2(CCN(C(=O)c3ccc(COCCC(F)(F)F)cc3)CC2)c2ccc(C(=O)C(F)(F)F)n21 (centres unmarked)
A. ≥ 5.70
